MEAN CORPUSCULAR VOLUME for assorted compounds
Species: Rattus norvegicus
Assay: DrugMatrix - Regimen: Daily Repeat
Assay type: toxicity, organism-based, Sprague-Dawley
Parameters: regimen Daily Repeat, gender Male, age 6-8 weeks
Conditions: in vivo, po, 1500 mg/kg, 120 h, tissue Blood, route oral GAVAGE, dose level High, time 5 day, vehicle .5 % CMC

COMPOUND: COC(=O)Nc1nc2ccc([S+]([O-])c3ccccc3)cc2[nH]1 (stereo not given)
MEAN CORPUSCULAR VOLUME / fL: 61.07

COMPOUND: CC(C)=CCC/C(C)=C/CO
MEAN CORPUSCULAR VOLUME / fL: 61.2

COMPOUND: O=c1cnn([C@@H]2O[C@H](CO)[C@@H](O)[C@H]2O)c(=O)[nH]1
MEAN CORPUSCULAR VOLUME / fL: 60.57

COMPOUND: CN(C)[C@@H]1C(O)=C(C(N)=O)C(=O)[C@@]2(O)C(O)=C3C(=O)c4c(O)ccc(Cl)c4[C@@](C)(O)[C@H]3C[C@@H]12
MEAN CORPUSCULAR VOLUME / fL: 61.17

COMPOUND: CC(C)Oc1ccc2c(=O)c(-c3ccccc3)coc2c1
MEAN CORPUSCULAR VOLUME / fL: 60.63

----------
TOTAL PROTEIN for assorted compounds
Species on record: Rattus norvegicus
Assay: DrugMatrix - Regimen: Daily Repeat
Assay type: toxicity, organism-based, Sprague-Dawley
Design: regimen Daily Repeat, gender Male, age 6-8 weeks
Details: in vivo, po, 0 mg/kg, 120 h, tissue Plasma, route oral GAVAGE, dose level Control, time 5 day, […]
VALUE_TYPE: TOTAL PROTEIN (G/DL)

COMPOUND: Clc1ccc(COC(Cn2ccnc2)c2ccc(Cl)cc2Cl)cc1 (centres undefined)
MEAS_VALUE: 5.87

COMPOUND: CC(C)(C)NC(=O)[C@H]1CC[C@H]2[C@@H]3CC[C@H]4NC(=O)C=C[C@]4(C)[C@H]3CC[C@]12C [FINASTERIDE]
MEAS_VALUE: 5.7

COMPOUND: CO[C@H]1/C=C/O[C@@]2(C)Oc3c(C)c(O)c4c(O)c(c(/C=N/N5CCN(C6CCCC6)CC5)c(O)c4c3C2=O)NC(=O)/C(C)=C\C=C\[C@H](C)[C@H](O)[C@@H](C)[C@@H](O)[C@@H](C)[C@H](OC(C)=O)[C@@H]1C
MEAS_VALUE: 6.1

COMPOUND: COc1cc(N)c(Cl)cc1C(=O)NC1CCN(CCCOc2ccc(F)cc2)CC1OC (centres undefined) [CISAPRIDE]
MEAS_VALUE: 5.72

----------
Species: Rattus norvegicus
Assay: DrugMatrix - Regimen: Daily Repeat
Type: toxicity, organism-based, Sprague-Dawley
Set-up: regimen Daily Repeat, gender Male, age 6-8 weeks
Settings: in vivo, po, 0 mg/kg, 72 h, tissue Blood, route oral GAVAGE, dose level Control, time 3 day, […]
VALUE_TYPE: MEAN CORPUSCULAR HEMOGLOBIN CONCENTRATION (G/DL)

MOLECULE: CO[C@H]1/C=C/O[C@@]2(C)Oc3c(C)c(O)c4c(O)c(c(/C=N/N5CCN(C6CCCC6)CC5)c(O)c4c3C2=O)NC(=O)/C(C)=C\C=C\[C@H](C)[C@H](O)[C@@H](C)[C@@H](O)[C@@H](C)[C@H](OC(C)=O)[C@@H]1C [RIFAPENTINE]
MEAS_VALUE: 37.12
//
MOLECULE: COc1cc(N)c(Cl)cc1C(=O)NC1CCN(CCCOc2ccc(F)cc2)CC1OC (centres undefined) [CISAPRIDE]
MEAS_VALUE: 39.05
//
MOLECULE: CC(C)(C)NC(=O)[C@H]1CC[C@H]2[C@@H]3CC[C@H]4NC(=O)C=C[C@]4(C)[C@H]3CC[C@]12C [FINASTERIDE]
MEAS_VALUE: 39.07
//
MOLECULE: Clc1ccc(COC(Cn2ccnc2)c2ccc(Cl)cc2Cl)cc1 (centres undefined) [ECONAZOLE]
MEAS_VALUE: 39.83

----------
POTASSIUM for assorted compounds
Organism: Rattus norvegicus
Assay: DrugMatrix - Regimen: Daily Repeat
Format: toxicity, organism-based, Sprague-Dawley
Design: regimen Daily Repeat, gender Male, age 6-8 weeks
Conditions: in vivo, po, 50 mg/kg, 72 h, tissue Plasma, route oral GAVAGE, dose level Low, time 3 day, vehicle .5 % CMC
VALUE_TYPE: POTASSIUM

COMPOUND: CCN1CCC[C@H]1CNC(=O)c1cc(S(N)(=O)=O)ccc1OC [LEVOSULPIRIDE]
MEAS_VALUE: 6.6 MEQ/L
//
COMPOUND: NC1CCN(c2nc3c(cc2F)c(=O)c(C(=O)O)cn3-c2ccc(F)cc2F)C1 (centres undefined) [TOSUFLOXACIN]
MEAS_VALUE: 6.8 MEQ/L
//
COMPOUND: CN(C)[C@@H]1C(O)=C(C(N)=O)C(=O)[C@@]2(O)C(O)=C3C(=O)c4c(O)ccc(Cl)c4[C@@](C)(O)[C@H]3C[C@@H]12 [CHLORTETRACYCLINE]
MEAS_VALUE: 6.6 MEQ/L
//
COMPOUND: Cc1cccc(C)c1OCC(C)N (centres undefined) [MEXILETINE]
MEAS_VALUE: 6.67 MEQ/L

----------
Species: Rattus norvegicus
Test: DrugMatrix - Regimen: Daily Repeat
Format: toxicity, organism-based, Sprague-Dawley
Set-up: regimen Daily Repeat, gender Male, age 6-8 weeks
Settings: in vivo, po, 0 mg/kg, 72 h, tissue Blood, route oral GAVAGE, dose level Control, time 3 day, […]
VALUE_TYPE: ABSOLUTE EOSINOPHIL (CELLS/uL)

COMPOUND: CO[C@H]1/C=C/O[C@@]2(C)Oc3c(C)c(O)c4c(O)c(c(/C=N/N5CCN(C6CCCC6)CC5)c(O)c4c3C2=O)NC(=O)/C(C)=C\C=C\[C@H](C)[C@H](O)[C@@H](C)[C@@H](O)[C@@H](C)[C@H](OC(C)=O)[C@@H]1C
VALUE_TYPE: ABSOLUTE EOSINOPHIL
MEAS_VALUE: 179.67
//
COMPOUND: Clc1ccc(COC(Cn2ccnc2)c2ccc(Cl)cc2Cl)cc1 (stereo not given)
VALUE_TYPE: ABSOLUTE EOSINOPHIL
MEAS_VALUE: 0
//
COMPOUND: COc1cc(N)c(Cl)cc1C(=O)NC1CCN(CCCOc2ccc(F)cc2)CC1OC (stereo not given) [CISAPRIDE]
VALUE_TYPE: ABSOLUTE EOSINOPHIL
MEAS_VALUE: 13.67
//
COMPOUND: COc1cc([C@@H]2c3cc4c(cc3[C@@H](O[C@@H]3O[C@@H]5CO[C@@H](C)O[C@H]5[C@H](O)[C@H]3O)[C@H]3COC(=O)[C@H]23)OCO4)cc(OC)c1O [ETOPOSIDE]
VALUE_TYPE: ABSOLUTE EOSINOPHIL
MEAS_VALUE: 52.33
//
COMPOUND: CC(C)(C)NC(=O)[C@H]1CC[C@H]2[C@@H]3CC[C@H]4NC(=O)C=C[C@]4(C)[C@H]3CC[C@]12C [FINASTERIDE]
VALUE_TYPE: ABSOLUTE EOSINOPHIL
MEAS_VALUE: 52.33

----------
MEAN CORPUSCULAR HEMOGLOBIN CONCENTRATION for assorted compounds
Species on record: Rattus norvegicus
Experiment: DrugMatrix - Regimen: Daily Repeat
Assay type: toxicity, organism-based, Sprague-Dawley
Set-up: regimen Daily Repeat, gender Male, age 6-8 weeks
Conditions: in vivo, po, 0 mg/kg, 72 h, tissue Blood, route oral GAVAGE, dose level Control, time 3 day, vehicle 100 % WATER
VALUE_TYPE: MEAN CORPUSCULAR HEMOGLOBIN CONCENTRATION (G/DL)

COMPOUND: CN(C)CCOC(c1ccccc1)c1ccccc1 [DIPHENHYDRAMINE]
MEAS_VALUE: 38.7

COMPOUND: NNc1nncc2ccccc12 [HYDRALAZINE]
MEAS_VALUE: 38.7

COMPOUND: CN1[C@@H]2CC[C@H]1C[C@@H](OC(=O)C(CO)c1ccccc1)C2 (some centres not stated)
MEAS_VALUE: 39.35

COMPOUND: C[C@]12C=CC(=O)C=C1CC[C@@H]1[C@@H]2[C@@H](O)C[C@@]2(C)[C@H]1CC[C@]2(O)C(=O)CO
MEAS_VALUE: 38.55

COMPOUND: Cc1ccc(NC(=O)c2ccc(CN3CCN(C)CC3)cc2)cc1Nc1nccc(-c2cccnc2)n1
MEAS_VALUE: 37.4

COMPOUND: Oc1cccc(O)c1O
MEAS_VALUE: 40.28

COMPOUND: O.O.O.O.O.O.[Cl-].[Cl-].[Sr+2] [STRONTIUM CHLORIDE HEXAHYDRATE]
MEAS_VALUE: 37.4

COMPOUND: Cn1c(=O)c2[nH]cnc2n(C)c1=O.O
MEAS_VALUE: 39.53

COMPOUND: CCN(CC)CCNC(=O)c1cc(S(C)(=O)=O)ccc1OC [TIAPRIDE]
MEAS_VALUE: 37.4

COMPOUND: CN(C)CC[C@@H](c1ccc(Cl)cc1)c1ccccn1
MEAS_VALUE: 39.95

COMPOUND: CS(=O)(=O)c1ccc([C@@H](O)[C@@H](CO)NC(=O)C(Cl)Cl)cc1
MEAS_VALUE: 37.4

COMPOUND: CC(C)NCC(O)c1ccc(NS(C)(=O)=O)cc1 (configuration not stated)
MEAS_VALUE: 39.18
